- measured.target: CYP2C9 (Homo sapiens)
- Sequence (P11712 whole entry): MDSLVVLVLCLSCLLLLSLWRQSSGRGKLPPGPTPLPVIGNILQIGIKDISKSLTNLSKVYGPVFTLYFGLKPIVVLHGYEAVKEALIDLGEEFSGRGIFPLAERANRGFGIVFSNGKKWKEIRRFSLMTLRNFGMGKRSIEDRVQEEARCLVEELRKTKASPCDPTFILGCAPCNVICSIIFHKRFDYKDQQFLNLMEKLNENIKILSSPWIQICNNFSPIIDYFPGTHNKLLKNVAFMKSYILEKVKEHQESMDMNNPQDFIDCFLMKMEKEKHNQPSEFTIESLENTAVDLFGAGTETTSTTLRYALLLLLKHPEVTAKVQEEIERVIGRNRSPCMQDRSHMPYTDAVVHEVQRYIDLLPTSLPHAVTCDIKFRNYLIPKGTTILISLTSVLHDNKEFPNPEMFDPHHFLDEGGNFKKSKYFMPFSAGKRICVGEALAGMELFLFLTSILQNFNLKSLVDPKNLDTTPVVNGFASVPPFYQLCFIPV
quantity.measured: IC50

response.value for CC(C)[C@@H](C)/C=C/[C@@H](C)[C@H]1CC[C@@H]2[C@]1(C)CC[C@H]1[C@]23C=C[C@]2(C[C@@H](O)CC[C@]12C)OO3 [Compound 2, Ergosterol peroxide] (field: IC50) = > 25 µM

----------
- measured.target: hERG (Homo sapiens, UniProt Q12809)
- Construct: expressed in transfected cells; host or cells: HEK-293
- Sequence (Q12809 whole entry): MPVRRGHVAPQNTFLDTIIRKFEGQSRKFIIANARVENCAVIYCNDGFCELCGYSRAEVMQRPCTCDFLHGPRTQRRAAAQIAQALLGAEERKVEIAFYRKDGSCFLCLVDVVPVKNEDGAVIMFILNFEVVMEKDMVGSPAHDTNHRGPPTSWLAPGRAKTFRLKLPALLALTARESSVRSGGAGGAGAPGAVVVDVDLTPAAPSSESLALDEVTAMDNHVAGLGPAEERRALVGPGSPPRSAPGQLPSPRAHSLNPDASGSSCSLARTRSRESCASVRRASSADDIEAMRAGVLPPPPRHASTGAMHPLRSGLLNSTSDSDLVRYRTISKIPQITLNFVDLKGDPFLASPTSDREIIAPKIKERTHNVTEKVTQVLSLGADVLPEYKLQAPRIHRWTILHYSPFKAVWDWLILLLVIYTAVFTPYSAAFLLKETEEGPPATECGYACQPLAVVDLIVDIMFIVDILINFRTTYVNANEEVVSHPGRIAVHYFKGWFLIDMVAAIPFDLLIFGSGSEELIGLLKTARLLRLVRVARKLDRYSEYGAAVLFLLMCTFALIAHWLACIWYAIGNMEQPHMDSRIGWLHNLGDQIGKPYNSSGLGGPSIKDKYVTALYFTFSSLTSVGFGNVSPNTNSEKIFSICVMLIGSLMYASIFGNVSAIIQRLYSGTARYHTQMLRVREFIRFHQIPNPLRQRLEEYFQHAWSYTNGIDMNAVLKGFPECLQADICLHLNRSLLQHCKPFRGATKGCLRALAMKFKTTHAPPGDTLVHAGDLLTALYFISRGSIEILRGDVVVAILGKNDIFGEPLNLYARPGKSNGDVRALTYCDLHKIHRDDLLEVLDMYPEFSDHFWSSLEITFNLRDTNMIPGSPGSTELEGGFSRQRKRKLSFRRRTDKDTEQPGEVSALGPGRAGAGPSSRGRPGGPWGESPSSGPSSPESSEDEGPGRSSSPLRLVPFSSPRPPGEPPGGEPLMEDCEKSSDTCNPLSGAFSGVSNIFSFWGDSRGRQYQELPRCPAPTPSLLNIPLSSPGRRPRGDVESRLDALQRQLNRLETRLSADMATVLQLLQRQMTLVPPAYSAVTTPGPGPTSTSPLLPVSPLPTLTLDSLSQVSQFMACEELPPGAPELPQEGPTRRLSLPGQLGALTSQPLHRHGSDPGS
- protocol: hERG channel inhibition assay (QPatch HTX, HEK-293)
- Assay type: cell-based
- recorded.conditions: human, HEK-293 cells that express hERG; 0.3 μM, second addition
quantity.measured: inhibition at 0.3 µM (%)
The response must be a number in % with no trailing unit.

response.value for CC(C)[C@@H](C)/C=C/[C@@H](C)[C@H]1CC[C@@H]2[C@]1(C)CC[C@H]1[C@]23C=C[C@]2(C[C@@H](O)CC[C@]12C)OO3 [Compound 2, Ergosterol peroxide] (field: inhibition at 0.3 µM) = 2.99
